assayOverview: Acute toxicity in mice
measurementParameters: mouse, in vivo, intravenous route, sesquioxalate form
metricName: LD50

Prompt: Name the reported LD50 value associated with the compound Cc1ccccc1OCCNCC(O)COc1c(C)ncc(CO)c1CO (stereo not shown) [drawing 41]
Response: 118 mg/kg

###

assayOverview: Acute toxicity in mice
measurementParameters: mouse, in vivo, po, intragastric route (salt form not stated)
metricName: LD50

Prompt: Need LD50, item COc1ccccc1OCCNCC(O)COc1c(C)ncc(CO)c1CO (stereo not shown) [drawing 42]
Response: > 5000 mg/kg

###

assayOverview: Acute toxicity in rats
Type: in vivo
measurementParameters: rat, in vivo, iv, sesquioxalate form
metricName: LD50 (mg/kg)
Answer format: numeric, mg/kg implied, no suffix.

Prompt: I would be grateful if you could share the reported LD50 for Cc1ccccc1OCCNCC(O)COc1c(C)ncc(CO)c1CO (stereo not shown) [drawing 41] .
Response: 170

###

assayOverview: Acute toxicity in rats
Type: in vivo
measurementParameters: rat, in vivo, iv, intravenous route (salt form not stated)
metricName: LD50 (mg/kg)
Give just the numeric value; mg/kg need not be written.

Prompt: Quick check: LD50 of COc1ccccc1OCCNCC(O)COc1c(C)ncc(CO)c1CO (stereo not shown) [drawing 42] ?
Response: 245

###

assayOverview: Acute toxicity in mice
measurementParameters: mouse, in vivo, po, intragastric route, sesquioxalate form
metricName: LD50 (mg/kg)
Give the number; mg/kg is assumed, so skip it.

Prompt: Look up LD50: Cc1ccccc1OCCNCC(O)COc1c(C)ncc(CO)c1CO (stereo not shown) [drawing 41]
Response: 700
